System: RXF 393 renal
TEST DETAILS: NCI tumour cell line growth inhibition, 48 h; in the data active = GI50 below about 0.43 µM; inactive = the rest
Can you answer with just one of these options? 1.0 = active, 0.0 = inactive

Solved cases (3 shown):
{"columns": ["COMPOUND", "CLASSIFICATION"],
 "data": [
  ["CC(C)C[C@H](NC(=O)CNC(=O)c1cc(Cl)ccc1Cl)B1OC(=O)CC(CC(=O)O)(C(=O)O)O1 (stereo partly drawn)", 1.0],
  ["COc1cc2c3c(n(C)c(=O)c2cc1OC)-c1cc2c(cc1/C3=C\\CCCCN1C(=O)c3ccccc3C1=O)OCO2", 0.0],
  ["COc1ccc2cc1Oc1ccc(cc1)C[C@H]1c3c(cc4c(c3Oc3cc5c(cc3OC)CCN(C)[C@@H]5C2)OCO4)CCN1C", 0.0]
]}

Tell me the assay call for CO/N=C(\COc1ccc2c(c1)[nH]c1ccccc12)c1ccc(F)cc1 please.
0.0

Status in this test for O=C(OCc1ccc2ccccc2n1)c1cn(C2CC2)c2cc(N3CCN(Cc4ccc5ccccc5n4)CC3)c(F)cc2c1=O ?
0.0

Returns: the outcome recorded for O=C1CCC(N2Cc3cc(CNC(=O)C(F)(F)c4ccc(Cl)cc4)ccc3C2=O)C(=O)N1 (stereo not drawn) in this assay.
0.0

Record lookup: outcome of this test for CCN(CC)c1ccc2cc(C(=O)Nc3ccc4[nH]c(C(=O)N5C[C@@H](CCl)c6c5cc(OC(=O)Nc5ccccc5)c5[nH]cc(C)c65)cc4c3)oc2c1 ?
0.0

Short answer needed: outcome of this test for Cc1ccc(/C=N\NC(=O)c2[nH]c3ccc(F)cc3c2-c2ccccc2)cc1 ?
1.0
